assaySystem: Cytochrome P450 2C19 (Homo sapiens) (UniProt P33261)
Sequence (P33261 whole entry, looked up): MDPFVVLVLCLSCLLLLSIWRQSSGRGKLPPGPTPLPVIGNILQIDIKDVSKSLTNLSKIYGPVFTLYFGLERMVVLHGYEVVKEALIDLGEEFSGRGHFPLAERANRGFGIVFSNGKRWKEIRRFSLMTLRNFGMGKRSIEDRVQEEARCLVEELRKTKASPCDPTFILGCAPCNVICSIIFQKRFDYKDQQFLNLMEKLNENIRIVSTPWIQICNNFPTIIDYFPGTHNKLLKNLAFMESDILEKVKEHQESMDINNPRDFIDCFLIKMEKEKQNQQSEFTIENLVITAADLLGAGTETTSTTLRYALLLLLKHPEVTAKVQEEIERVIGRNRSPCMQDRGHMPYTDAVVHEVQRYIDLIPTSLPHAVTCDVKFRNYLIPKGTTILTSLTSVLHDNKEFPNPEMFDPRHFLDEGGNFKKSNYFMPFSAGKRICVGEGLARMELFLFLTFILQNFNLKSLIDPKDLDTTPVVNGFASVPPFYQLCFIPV
experimentDescription: Cytochrome panel assay with activity outcomes
experimentalParameters: recombinant CYP, pro-luciferin dealkylation, luminescence, p450-cyp2c19; series mostly up to 57.1 µM
The whole screen tested about 16,000 compounds, of which about 5,800 (36%) were called active. Not shown: some 23% with an inconclusive outcome. Calls follow the shape of the dose curve; as a rule, active = well fitted curve in the direction sought with a large enough effect; inconclusive = small, poorly fitted or top-dose-only effect, or effect the other way; inactive = no such curve, though single readings can be large or run the other way. The list shows a part of the results.
Possible outcomes: active, inactive

{"compound": "OC(CNCc1ccc(F)cc1)(c1ccc(F)cc1)c1ccc(F)cc1", "classification": "active"}
{"compound": "Cc1ccnc(NCn2nnc3ccccc32)c1", "classification": "active"}
{"compound": "Cc1cc(C)c(NC(=O)C2CCCN2C)c(C)c1 (stereo unspecified)", "classification": "inactive"}
{"compound": "COc1ccccc1CNc1ccnc(-c2c(C)noc2C)n1", "classification": "active"}
{"compound": "Cn1c(=O)c(CCc2ccccc2)nc2cnc(Oc3ccccc3)nc21", "classification": "active"}
{"compound": "N#CCCn1nnc2ccccc21", "classification": "inactive"}
{"compound": "Cc1cc(C)c(C)c(S(=O)(=O)ON2C(=O)c3ccccc3C2=O)c1C", "classification": "active"}
{"compound": "O=C(CCNC(=O)Cn1cnc2ccccc2c1=O)NCC1COc2ccccc2O1 (stereo unspecified)", "classification": "active"}
{"compound": "COCCNc1ncncc1-c1c(C)noc1C", "classification": "inactive"}
{"compound": "COCCNc1ccnc(-c2c(C)noc2C)n1", "classification": "inactive"}
{"compound": "COc1ccc(Oc2ncc3nc(C)c(=O)n(C)c3n2)cc1", "classification": "inactive"}
